- tested.target: Neurogenic locus notch homolog protein 2 (Homo sapiens) (UniProt Q04721)
- Sequence (Q04721 whole entry, looked up): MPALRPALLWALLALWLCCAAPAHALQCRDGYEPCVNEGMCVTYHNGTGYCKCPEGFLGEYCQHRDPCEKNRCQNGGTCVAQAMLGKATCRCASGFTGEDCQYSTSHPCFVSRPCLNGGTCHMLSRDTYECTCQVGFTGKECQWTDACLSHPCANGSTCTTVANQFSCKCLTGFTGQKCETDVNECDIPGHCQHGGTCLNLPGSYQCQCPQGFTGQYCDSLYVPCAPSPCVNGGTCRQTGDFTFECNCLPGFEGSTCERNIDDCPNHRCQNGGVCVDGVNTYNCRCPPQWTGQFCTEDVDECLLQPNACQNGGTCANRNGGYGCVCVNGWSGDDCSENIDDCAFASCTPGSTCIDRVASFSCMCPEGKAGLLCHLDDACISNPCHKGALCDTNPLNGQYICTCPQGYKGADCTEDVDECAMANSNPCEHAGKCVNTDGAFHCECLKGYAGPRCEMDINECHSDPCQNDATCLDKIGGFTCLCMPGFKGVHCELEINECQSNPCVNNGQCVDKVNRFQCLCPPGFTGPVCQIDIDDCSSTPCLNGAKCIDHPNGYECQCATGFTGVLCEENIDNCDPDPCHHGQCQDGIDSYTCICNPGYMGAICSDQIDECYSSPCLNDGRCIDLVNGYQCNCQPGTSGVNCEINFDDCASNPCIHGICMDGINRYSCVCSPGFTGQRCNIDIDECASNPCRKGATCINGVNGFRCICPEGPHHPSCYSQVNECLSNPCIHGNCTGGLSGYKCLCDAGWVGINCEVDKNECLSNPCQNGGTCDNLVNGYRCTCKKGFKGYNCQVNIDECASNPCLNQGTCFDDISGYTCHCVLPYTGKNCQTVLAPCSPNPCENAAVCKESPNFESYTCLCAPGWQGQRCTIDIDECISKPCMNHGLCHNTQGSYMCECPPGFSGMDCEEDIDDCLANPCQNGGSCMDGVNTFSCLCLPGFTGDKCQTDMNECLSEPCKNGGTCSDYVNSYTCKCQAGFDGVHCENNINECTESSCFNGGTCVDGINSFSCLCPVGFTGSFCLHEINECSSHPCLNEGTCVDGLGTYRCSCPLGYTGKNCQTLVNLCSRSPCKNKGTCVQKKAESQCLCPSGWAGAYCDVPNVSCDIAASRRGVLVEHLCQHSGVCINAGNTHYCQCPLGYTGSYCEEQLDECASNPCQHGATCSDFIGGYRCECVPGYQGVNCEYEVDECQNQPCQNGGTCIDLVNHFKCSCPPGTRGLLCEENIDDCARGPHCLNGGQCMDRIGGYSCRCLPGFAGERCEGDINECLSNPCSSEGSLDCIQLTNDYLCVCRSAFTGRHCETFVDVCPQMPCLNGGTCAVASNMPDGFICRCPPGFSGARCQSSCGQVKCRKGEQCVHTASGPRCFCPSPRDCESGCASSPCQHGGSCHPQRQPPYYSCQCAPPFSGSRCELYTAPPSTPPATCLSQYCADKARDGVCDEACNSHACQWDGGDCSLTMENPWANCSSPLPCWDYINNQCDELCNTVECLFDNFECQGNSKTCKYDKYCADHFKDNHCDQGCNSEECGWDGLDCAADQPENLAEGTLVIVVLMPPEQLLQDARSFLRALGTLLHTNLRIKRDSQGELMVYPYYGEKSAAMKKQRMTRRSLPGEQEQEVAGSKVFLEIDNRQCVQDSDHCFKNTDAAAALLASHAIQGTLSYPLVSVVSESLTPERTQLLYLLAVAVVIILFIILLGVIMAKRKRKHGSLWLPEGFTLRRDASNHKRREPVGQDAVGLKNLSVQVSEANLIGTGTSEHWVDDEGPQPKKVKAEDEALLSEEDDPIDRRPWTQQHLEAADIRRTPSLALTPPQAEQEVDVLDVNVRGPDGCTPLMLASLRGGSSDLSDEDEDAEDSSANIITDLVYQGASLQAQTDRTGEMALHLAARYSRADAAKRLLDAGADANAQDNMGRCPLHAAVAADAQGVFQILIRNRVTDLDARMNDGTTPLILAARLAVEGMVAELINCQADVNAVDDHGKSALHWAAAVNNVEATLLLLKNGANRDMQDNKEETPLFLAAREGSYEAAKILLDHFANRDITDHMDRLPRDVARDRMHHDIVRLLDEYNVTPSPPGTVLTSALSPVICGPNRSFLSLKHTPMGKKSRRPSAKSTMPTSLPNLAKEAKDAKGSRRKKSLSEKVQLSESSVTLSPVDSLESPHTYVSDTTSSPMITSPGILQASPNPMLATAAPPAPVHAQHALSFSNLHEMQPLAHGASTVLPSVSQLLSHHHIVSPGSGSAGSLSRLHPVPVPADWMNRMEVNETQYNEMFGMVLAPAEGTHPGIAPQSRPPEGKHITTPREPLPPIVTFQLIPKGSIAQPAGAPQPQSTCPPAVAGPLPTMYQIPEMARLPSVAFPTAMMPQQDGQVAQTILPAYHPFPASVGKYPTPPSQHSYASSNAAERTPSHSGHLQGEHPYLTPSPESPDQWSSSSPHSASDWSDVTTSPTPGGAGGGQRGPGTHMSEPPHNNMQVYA
- method: small molecules binding Notch2 protein – biochemical, small-molecule microarray, 635 nm fluorescence, stem cell growth factors, primary screen (AID 1073)
- measurement.parameters: higher = more signal
In this section we review reported composite z-score values for a set of compounds.

CCOC(=O)C1=CC[C@@H](c2ccccc2)N(S(=O)(=O)c2ccc(C)cc2)[C@H]1C=C(C)C ... 1.46

Request: What does the data say about its composite z-score? Entry: `CN(C)C(=O)[C@@]1(CCC(=O)OC(C)(C)C)COC(c2ccc(OCCCO)cc2)=N1`
Result: 0.675

Request: What does the data say about its composite z-score? Entry: `C=C(CCCC)/C(=C/C[C@H](OC(=O)c1ccncc1)c1ccc(CO)o1)c1cc(C(=O)OC)ccc1OC`
Result: 0.822

Request: What does the data say about its composite z-score? Entry: `COC(=O)[C@@]1(Cc2ccc(F)cc2)[C@H]2c3cc(C(=O)N(C)C)n(Cc4ccc(C)c(F)c4F)c3C[C@H]2CN1C(=O)c1ccccc1`
Result: 1.62

Request: What does the data say about its composite z-score? Entry: `C=CC[C@@]1(C(=O)NCCN2CCOCC2)N=C(c2ccc(OCCCO)cc2)O[C@@H]1c1ccccc1`
Result: 0.52

Request: What does the data say about its composite z-score? Entry: CC(C)c1ccc(NN2C(C(O)c3ccccn3)C=CC3C(=O)N(c4ccccc4)C(=O)C32)cc1 (centres undefined)
Result: 1.64

Request: What does the data say about its composite z-score? Entry: O=C(C=C(CC(O)c1cccc(Cl)c1)OCCF)OCCF (centres undefined)
Result: -1.02

Request: What does the data say about its composite z-score? Entry: C=CCC(OC(C)=O)[C@@H]1[C@@H](N(Cc2ccc(-c3ccccc3)cc2)C(=O)c2cccc3ccccc23)c2cc(OCCCO)ccc2N1C(=O)c1ccc2ccccc2n1 (some centres undefined)
Result: 0.127

Request: What does the data say about its composite z-score? Entry: `CC(C)C[C@@H]1NC(=O)[C@@H]2C[C@H](C(=O)NCc3ccc(F)cc3)[C@H](c3ccc(O)cc3)N2C1=O`
Result: 0.245

Request: What does the data say about its composite z-score? Entry: `CN(C)C(=O)[C@]1(Cc2ccccc2N=[N+]=[N-])N=C(c2ccc(OCCCO)cc2)O[C@@H]1c1ccccc1CN=[N+]=[N-]`
Result: 1.51

Request: What does the data say about its composite z-score? Entry: `COCCCNC(=O)[C@@]1(Cc2ccccc2CN=[N+]=[N-])N=C(c2ccc(OCCCO)cc2)O[C@H]1c1ccccc1N=[N+]=[N-]`
Result: 1.18

Request: What does the data say about its composite z-score? Entry: C=CC[C@]1(C(=O)NCC(O)CO)N=C(c2ccc(OCCCO)cc2)O[C@H]1c1ccccc1N=[N+]=[N-] (some centres undefined)
Result: 0.323

Source listed as PubChem BioAssay.
